- Tested on: PC-3 (human prostate adenocarcinoma)
- Run description: Cytotoxicity, sulforhodamine B (SRB) microculture assay
- Format: cell-based
Readout: IC50 (nM)
Please give a number only; it is taken to be in nM.

Sure, the documented IC50 for O=C(C=C([O-])/C=C/c1ccco1)/C=C/c1ccco1.O=C(C=C([O-])/C=C/c1ccco1)/C=C/c1ccco1.[Cu+2] [FuranCurc-Cu] is 3000

###

- Test system: U251 (human glioblastoma cell line)
- Run description: Cytotoxicity, sulforhodamine B (SRB) microculture assay
- Type: cell-based
IC50 by entry:
Form entry: value (µM) — number only.

INSERT INTO assay_data (molecule, result_number) VALUES
  ('Cn1cccc1/C=C/C(=O)C=C([O-])/C=C/c1cccn1C.Cn1cccc1/C=C/C(=O)C=C([O-])/C=C/c1cccn1C.[Cu+2] [N-methyl-pyrCurc-Cu]', 10.6);

The molecule listed as O=C(C=C([O-])/C=C/c1ccco1)/C=C/c1ccco1.O=C(C=C([O-])/C=C/c1ccco1)/C=C/c1ccco1.[Cu+2] [FuranCurc-Cu] has a reported IC50 of 4

###

- Test system: MCF-7 (human mammary adenocarcinoma)
- Run description: Cytotoxicity, sulforhodamine B (SRB) microculture assay
- Assay type: cell-based
- Settings: Homo sapiens, MCF7, 25 μM, read-out: % of Inhibition (cytotoxic screening)
- Experimental: The cytotoxicity of all compounds was tested against six cancer cell lines: U251 (human glioblastoma cell line), PC-3 (human prostate adenocarcinoma), K562 (human chronic myelogenous leukemia), HCT-15 (human colon adenocarcinoma), MCF-7 (human mammary adenocarcinoma), and SKLU-1 (human lung adenocarcinoma). Cell lines were supplied by the U.S. National Cancer Institute (NCI). […]
In this section we review reported inhibition at 25 µM values for a set of molecules.

Worked examples follow.
INSERT INTO measurements (smiles_representation, result) VALUES
  ('Cn1cccc1/C=C/C(=O)/C=C(O)/C=C/c1cccn1C', '99.9%'),
  ('O=C(/C=C(O)/C=C/c1cccs1)/C=C/c1cccs1', '13.4%'),
  ('COc1cc(/C=C/C(=O)CC(=O)/C=C/c2ccc(O)c(OC)c2)ccc1O', '82.4%');

Consider the record given below.
Per the record, `O=C(/C=C(O)/C=C/c1ccco1)/C=C/c1ccco1` has inhibition at 25 µM of 0%
